Assay Info: AUC (0 to infinity) in Sprague-Dawley rat at 2 mg/kg, iv measured at 0.08 to 24 hrs by LC-MS/MS analysis
Assay type: ADME, organism-based
Design: time 0.08-24 hrs, dose 2 mg/kg, route iv
Applied Conditions: in vivo

{"Compound Smiles": "O[C@@](CN1CCN(CCn2ccc3cc(Br)ccc32)CC1)(Cn1cncn1)c1ccc(F)cc1F", "AUC(0-inf), ng·h/mL": 1260}

---

Assay Info: Hemolytic activity in mouse RBC assessed as hemolysis at 100 microg/ml incubated for 60 mins relative to control
Format: toxicity, cell-based, Erythrocyte
Applied Conditions: red blood cells (erythrocytes), at 100 µg/mL, read-out: Activity
Below, each entry is listed alongside its reported hemolysis at 1 h, 100 microg/ml.

{"Compound": "O[C@@](CN1CCN(CCn2ccc3cc(Br)ccc32)CC1)(Cn1cncn1)c1ccc(F)cc1F", "hemolysis at 1 h, 100 microg/ml / %": 1.9}
{"Compound": "OC(CN1CCN(CCCn2ccc3cc(Br)ccc32)CC1)(Cn1cncn1)c1ccc(F)cc1F (centres undefined)", "hemolysis at 1 h, 100 microg/ml / %": 5.9}
{"Compound": "OC(CN1CCN(CCn2ccc3cc(Br)ccc32)CC1)(Cn1cncn1)c1ccc(F)cc1F (centres undefined)", "hemolysis at 1 h, 100 microg/ml / %": 1.2}
{"Compound": "OC(Cn1cncn1)(Cn1cncn1)c1ccc(F)cc1F [FLUCONAZOLE]", "hemolysis at 1 h, 100 microg/ml / %": 1.7}
